# System: CD2F1 mice, L1210 leukemia ip, survival T/C
# Assay info: NCI In Vivo Anticancer Drug Screen. Data for tumor model L1210 Leukemia (intraperitoneal) in CD2F1 (CDF1) mice
# Protocol conditions: endpoint: mean survival time; dose: 400.0 mg/kg/injection; schedule: Q01DX009 (ip); vehicle: saline sonified
Toxic doses and inconclusive results are not listed. Rule for the calls: active = survival T/C of 150% or more; inactive = T/C below 125% in these data.
I would appreciate it if you answered using one of these outcomes: active, inactive

// below: answered compounds
O=C1NC(c2ccccc2)C([N+](=O)[O-])=C1O (stereo unspecified) | inactive
O=S(=O)(O)/[N+]([O-])=N/O | inactive
CC1CC(C)(C)CC2(C1)OCC(CCl)O2 (stereo unspecified) | inactive
Nc1cnc2nc(N)[nH]c(=O)c2c1 | inactive
CC(C)CC(=O)Nc1ccccc1 | inactive

Turning now to a further record.
// outcome(item) with item = `CCOC(=O)c1[nH]cnc1/N=N/N(C)CCO`
active

----------
Each entry below carries its recorded T/C.
# Test system: CD2F1 mice, L1210 leukemia ip, survival T/C
# Assay info: NCI In Vivo Anticancer Drug Screen. Data for tumor model L1210 Leukemia (intraperitoneal) in CD2F1 (CDF1) mice
# Protocol conditions: endpoint: mean survival time; dose: 150.0 mg/kg/injection; schedule: Q01DX001 (ip); vehicle: other; higher = longer survival
Toxic doses and inconclusive results are not listed.

Would you please look over these solved cases?
CC1=NN(c2ccc([N+](=O)[O-])cc2)C(=O)C1[N+](=O)[O-] (stereo unspecified) (tested in a mixture with another compound) | 104 % of control
CC1CCC(NC(=O)NCCF)CC1 (stereo unspecified) | 115 % of control
CC(C)(C)c1ccc(S(=O)(=O)CC(=O)O)cc1 | 100 % of control
CCN1CCCSC1=S | 103 % of control
CN1CCc2[nH]c3ccccc3c2C1 | 93 % of control

Next molecule, T/C to be filled in.
Provide one value: measured T/C of `Cc1cc(C)c(C)c(C(=O)C(=O)c2ccccc2)c1`
94 % of control

----------
# System: CD2F1 mice, L1210 leukemia ip, survival T/C
# Assay info: NCI In Vivo Anticancer Drug Screen. Data for tumor model L1210 Leukemia (intraperitoneal) in CD2F1 (CDF1) mice
# Protocol conditions: endpoint: mean survival time; dose: 25.0 mg/kg/injection; schedule: Q01DX009 (ip); vehicle: saline; higher = longer survival
Inconclusive results and toxic doses are left out.
Each entry below carries its recorded T/C.

Would you please look over these solved cases?
C=C(Br)CN(CC)C(C)=O | 97 % of control
COc1ccc(CC2=NCCc3cc(OC)c(OC)cc32)cc1OC | 95 % of control
C1CN2CN3CCN(CN1C3)C2 | 109 % of control
CNC(=O)CCl | 103 % of control
O=S(=O)(O)SCCN1CCCC1 | 104 % of control
CN(C)/N=N/c1nc[nH]c1C(N)=O | 117 % of control

Provide one value: measured T/C of `CC[C@H]1CN2CCc3cc(OC)c(OC)cc3[C@@H]2C[C@@H]1C[C@@H]1c2cc(OC)c(OC)cc2CCN1N=O`
104 % of control

Provide one value: measured T/C of `CCCCCCCCCCCCNC(=O)C[n+]1cccc(C(=O)NC)c1`
101 % of control

Provide one value: measured T/C of `C=C(CC(=O)OC)C(=O)O`
98 % of control

Provide one value: measured T/C of `NC(=O)C1(N2CCCCC2)CCN(CCCC(=O)c2ccc(F)cc2)CC1`
101 % of control

Provide one value: measured T/C of Cc1ccc(C2(SCC(N)C(=O)O)c3ccccc3-c3ccccc32)cc1 (stereo unspecified)
95 % of control

Provide one value: measured T/C of `Clc1ccc(CSC2=NCCN2)cc1`
87 % of control
